Values compiled from PubChem BioAssay (NCI).

Tested on: HOP-92 NSCLC
assay text: NCI-60 one-dose screen, 48 h
condition summary: 10 µM unless noted
About 83,000 compounds went through this panel and 20% of them were active in at least one assay; those are over-represented in the sample as a whole. Calls of active or inactive are those of the source. How the source made its calls: active means growth percent below 10; inactive means the rest.
Return exactly one item of active, inactive

Some solved cases for reference:
- compound: "N/C(=N\\c1nc2c(Br)cccc2s1)C(Br)Br"
  qualitative label: "active"
- compound: "COc1ccc(/C=N/NC(=O)c2[nH]c3ccc(Br)cc3c2-c2ccccc2)o1"
  qualitative label: "inactive"
- compound: "Cc1ccc2ccc3ccc(C)nc3c2n1.Cc1ccc2ccc3ccc(C)nc3c2n1.Oc1c(Cl)cc(Cl)c2ccc(CN3CCCCC3)nc12.[Ru]"
  qualitative label: "active"
- compound: "c1ccc2c(NCCCN3CCOCC3)c3oc4ccccc4c3nc2c1"
  qualitative label: "active"
- compound: "Cc1cc2nc3c4cc(Cl)ccc4n(CC(=O)NCCN(C)C)c3nc2cc1C"
  qualitative label: "inactive"

**Q:** Which outcome was assigned to OC1CCN(CCCOc2c3ccc(Cl)cc3nc3c2oc2ccccc23)CC1 in this test?
**A:** active

**Q:** Which outcome was assigned to OC1CCc2c(-c3ccc4ncnc(N5CCc6cc(F)c(Cl)cc65)c4c3)cncc21 (stereo not given) in this test?
**A:** inactive
